Test system: Human alphaherpesvirus 2
protocol_summary: Relative potency to that of YAGAVVNDL against Herpes Simplex Virus type 2 ribonucleotide reductase
Starred links: 1 amine or outer side, 2 acyl side, 3 side chain; linkers in the order of their positions; H or OH if unused. Non-standard residues stand in square brackets, D forms with d. Residues, ends and D or L forms follow the SMILES beside them. X1 = O=C([C@H](Cc1ccc(O)cc1)N(Cc1cccc(Oc2ccccc2)c1)[*:1])[*:2]
Outcome: 1 for Relative potency of at least 1; 0 for anything lower.

Worked set:
compound="CC(C)C[C@H](NC(=O)[C@H](CC(=O)O)NC(=O)[C@H](CC(=O)N(C)C)NC(=O)[C@@H](NC(=O)[C@@H](NC(=O)[C@@H](N)CC(=O)O)C(C)C)C(C)C)C(=O)O (H-DVVD(NMe2)DL-OH)" assigned_label=1
compound="CC(C)C[C@H](NC(=O)[C@H](CC(=O)O)NC(=O)[C@H](CC(N)=O)NC(=O)[C@@H](NC(=O)[C@@H](NC(=O)[C@H](Cc1ccc(O)cc1)NCc1cccc(Oc2ccccc2)c1)C(C)C)C(C)C)C(=O)O (H-[X1]VVNDL-OH)" assigned_label=1
compound=CC(C)C[C@H](NC(=O)[C@H](CC(=O)O)NC(=O)[C@H](CC(N)=O)NC(=O)[C@@H](NC(=O)[C@@H](NC(=O)CC(c1ccccc1)c1ccccc1)C(C)C)C(C)C)C(=O)O assigned_label=1

Can CC(C)C[C@H](NC(=O)[C@H](CC(=O)O)NC(=O)[C@H](CC(N)=O)NC(=O)[C@@H](NC(=O)[C@@H](NC(=O)[C@@](C)(N)Cc1ccc(O)cc1)C(C)C)C(C)C)C(=O)O (stereo in doubt; form 2) be said to have Relative potency at or above 1? 0
